For each entry below, report its TGI value.
# Tested on: RPMI-8226 leukemia
# assay-overview: NCI tumour cell line growth inhibition, 48 h

Please review the following examples before continuing.
{"molecule": "O=[N+]([O-])c1ccc(Cl)c(C2SCc3nc4ccccc4n32)c1 (centres undefined)", "value-reported": "> 100 µM"}
{"molecule": "COc1ccc([C@H]2O[C@@H](CO)C[C@]2(O)c2ccc(OC)cc2)cc1", "value-reported": "> 100 µM"}
{"molecule": "COc1ccc(C(O)c2cc3c(N)c(C(=O)Nc4cccc(Br)c4)sc3nc2C)cc1 (centres undefined)", "value-reported": "33.6 µM"}
{"molecule": "COc1cc2c(cc1OC)C(Cl)C(c1cc(OC)c(OC)c(OC)c1)=C2Cl (centres undefined)", "value-reported": "37 µM"}
{"molecule": "Cc1ccc(N2C(=O)/C(=C3\\Sc4c(nc(C)[nH]c4=O)N3c3ccccc3)SC2=S)cc1", "value-reported": "> 100 µM"}
{"molecule": "CCC1(CN(C)C)CC/C(=C\\c2ccc3c(c2)OCO3)C1=O (centres undefined)", "value-reported": "> 100 µM"}
{"molecule": "COc1ccccc1/C=C\\c1cc(OC)c(OC)c(OC)c1", "value-reported": "43.7 µM"}
{"molecule": "COc1ccc(NC(=O)c2cc(OC)c(OC)c(OC)c2)cc1O", "value-reported": "> 100 µM"}

State recorded TGI for all listed molecules.
1. COc1ccc(O)c2c1C(=O)CCCC2=O
2. CCN1/C(=C/C(C)=C/c2sc3ccccc3[n+]2CC)Sc2ccccc21
3. Cc1cc(C)nc(NS(=O)(=O)c2ccc(NC(=O)c3cccc4cc5ccccc5nc34)cc2)n1
4. COc1cc2c(cc1C)n(O)c(C)c(C(=O)C/C(=N/NC(=O)C[N+](C)(C)C)C(=O)Nc1cccc(Cl)c1C)[n+]2=O
5. CN1C[C@@H]2CCCN2P1Oc1cccc2cccnc12 (some centres undefined)
6. CCN(CC)CCNc1ccc(C)c2sc3ccc(O)cc3c(=O)c12
7. COc1ccc(NC(=O)C(=O)C2NC(=S)NC2=O)c(OC)c1 (centres undefined)
8. C[C@@H]1CC[C@@]2(OC1)O[C@H]1C[C@H]3[C@@H]4CC=C5C[C@@H](O[C@@H]6O[C@H](CO)[C@@H](O[C@@H]7O[C@@H](CO)[C@H](O)[C@H]7O)[C@H](O)[C@H]6O[C@@H]6O[C@@H](C)[C@H](O)[C@@H](O)[C@H]6O)CC[C@]5(C)[C@H]4CC[C@]3(C)[C@H]1[C@@H]2C

Result:
> 100 µM
4.48 µM
85.7 µM
> 100 µM
66.2 µM
4.95 µM
> 100 µM
2.4 µM

* * *

# Tested on: SNB-19 CNS
# assay-overview: NCI tumour cell line growth inhibition, 48 h
reported-endpoint: TGI

Please review the following examples before continuing.
{"compound": "Cn1c(=O)c2[nH]c(COc3ccc(C(C)(C)C)cc3)nc2n(C)c1=O", "TGI": "> 100 µM"}
{"compound": "CCOC(=O)C12CC1(C(=O)OCC)C1CCC2C1 (stereo unspecified)", "TGI": "> 100 µM"}
{"compound": "Cn1ccnc1C(=O)/C=C/c1ccc(C(=O)Nc2nc3ccccc3[nH]2)cc1", "TGI": "> 25 µM"}
{"compound": "COC/C=C\\[C@@]1(O)CCCC[C@@H]1CC(OC)OC", "TGI": "> 100 µM"}

State recorded TGI for all listed compounds.
1. N#Cc1c(NC(=S)NCc2ccccc2)sc2c1CCN(N1CCc3c(sc(NC(=S)NCc4ccccc4)c3C#N)C1)C2
2. Nc1ncc(Cc2nc3ccccc3s2)s1

Result:
1. > 100 µM
2. > 100 µM

Hey, just so you know, these numbers are from PubChem BioAssay (NCI).
